Tested on: PC-3 PIP/flu tumor-bearing mice
EXPERIMENTAL_PROTOCOL: Biodistribution study in PC-3 PIP/flu tumor-bearing mice
Assay type: in vivo, athymic nude Balb/c mice
RUN_PARAMETERS: 24 h p.i., PC-3 PIP/flu tumor-bearing mice
Below, each of the molecules is paired with its reported Stomach value.
Answer format reminder: number followed by unit.

Enquiry: Query: Stomach; subject: CC(C)Cc1ccc(C(C)C(=O)NCC[C@H](NC(=O)CN2CCN(CC(=O)O)CCN(CC(=O)O)CCN(CC(=O)O)CC2)C(=O)NCC2CCC(C(=O)N[C@@H](Cc3ccc4ccccc4c3)C(=O)NCCCC[C@H](NC(=O)N[C@@H](CCC(=O)O)C(=O)O)C(=O)O)CC2)cc1 (stereo partly drawn) [^177Lu-Ibu-sPSMA, metal not drawn]
Return: 0.50 ± 0.19 % IA/g

Enquiry: Continue with CC(C)Cc1ccc(C(C)C(=O)NCCCCC(NC(=O)CN2CCN(CC(=O)O)CCN(CC(=O)O)CCN(CC(=O)O)CC2)C(=O)NCC2CCC(C(=O)NC(Cc3ccc4ccccc4c3)C(=O)NCCCCC(NC(=O)NC(CCC(=O)O)C(=O)O)C(=O)O)CC2)cc1 (stereo not drawn) [^177Lu-Ibu-PSMA, metal not drawn]
Return: 0.23 ± 0.02 % IA/g

# next molecule below
Enquiry: Tell me the measured Stomach of CC(C)Cc1ccc(C(C)C(=O)NC(CCN)C(=O)NCCCCC(NC(=O)CN2CCN(CC(=O)O)CCN(CC(=O)O)CCN(CC(=O)O)CC2)C(=O)NCC2CCC(C(=O)NC(Cc3ccc4ccccc4c3)C(=O)NCCCCC(NC(=O)NC(CCC(=O)O)C(=O)O)C(=O)O)CC2)cc1 (stereo not drawn) [^177Lu-Ibu-DAB-PSMA, metal not drawn] , please.
Return: 0.18 ± 0.13 % IA/g

* * *

System: PC-3 PIP/flu tumor-bearing mice
EXPERIMENTAL_PROTOCOL: Biodistribution study in PC-3 PIP/flu tumor-bearing mice
Assay type: in vivo, athymic nude Balb/c mice
RUN_PARAMETERS: 4 h p.i., PC-3 PIP/flu tumor-bearing mice
TEST_READOUT: Tumor-to-kidney
Lab note: record just the number, no unit beside it.

Enquiry: Reported Tumor-to-kidney for CC(C)Cc1ccc(C(C)C(=O)NC(CC(=O)O)C(=O)NCCCCC(NC(=O)CN2CCN(CC(=O)O)CCN(CC(=O)O)CCN(CC(=O)O)CC2)C(=O)NCC2CCC(C(=O)NC(Cc3ccc4ccccc4c3)C(=O)NCCCCC(NC(=O)NC(CCC(=O)O)C(=O)O)C(=O)O)CC2)cc1 (stereo not shown) [^177Lu-Ibu-Dα-PSMA, metal not drawn] : what is it?
Return: 1.82

Enquiry: Follow-up entry: CC(C)Cc1ccc(C(C)C(=O)NC(CC(=O)NCCCCC(NC(=O)CN2CCN(CC(=O)O)CCN(CC(=O)O)CCN(CC(=O)O)CC2)C(=O)NCC2CCC(C(=O)NC(Cc3ccc4ccccc4c3)C(=O)NCCCCC(NC(=O)NC(CCC(=O)O)C(=O)O)C(=O)O)CC2)C(=O)O)cc1 (stereo not shown) [^177Lu-Ibu-Dβ-PSMA, metal not drawn]
Return: 2.06

Enquiry: Now try CC(C)Cc1ccc(C(C)C(=O)NC(CCN)C(=O)NCCCCC(NC(=O)CN2CCN(CC(=O)O)CCN(CC(=O)O)CCN(CC(=O)O)CC2)C(=O)NCC2CCC(C(=O)NC(Cc3ccc4ccccc4c3)C(=O)NCCCCC(NC(=O)NC(CCC(=O)O)C(=O)O)C(=O)O)CC2)cc1 (stereo not shown) [^177Lu-Ibu-DAB-PSMA, metal not drawn] .
Return: 3.01

Here is the next item to consider.
Enquiry: Tumor-to-kidney lookup needed for CC(C)Cc1ccc(C(C)C(=O)NC(CC(N)=O)C(=O)NCCCCC(NC(=O)CN2CCN(CC(=O)O)CCN(CC(=O)O)CCN(CC(=O)O)CC2)C(=O)NCC2CCC(C(=O)NC(Cc3ccc4ccccc4c3)C(=O)NCCCCC(NC(=O)NC(CCC(=O)O)C(=O)O)C(=O)O)CC2)cc1 (stereo not shown) [^177Lu-Ibu-N-PSMA, metal not drawn] , thanks.
Return: 2.48

* * *

Tested on: PC-3 PIP/flu tumor-bearing mice
EXPERIMENTAL_PROTOCOL: Biodistribution study in PC-3 PIP/flu tumor-bearing mice
Assay type: in vivo, athymic nude Balb/c mice
RUN_PARAMETERS: 24 h p.i., PC-3 PIP/flu tumor-bearing mice
Reported Blood by item:
Don't forget the unit after the value.

Use the examples below as a reference point.
Enquiry: Item under review: CC(C)Cc1ccc(C(C)C(=O)NC(CC(=O)O)C(=O)NCCCCC(NC(=O)CN2CCN(CC(=O)O)CCN(CC(=O)O)CCN(CC(=O)O)CC2)C(=O)NCC2CCC(C(=O)NC(Cc3ccc4ccccc4c3)C(=O)NCCCCC(NC(=O)NC(CCC(=O)O)C(=O)O)C(=O)O)CC2)cc1 (stereo not shown) [^177Lu-Ibu-Dα-PSMA, metal not drawn] . Reported Blood?
Return: 0.33 ± 0.06 % IA/g

Enquiry: Try this compound too: CC(C)Cc1ccc(C(C)C(=O)NCC[C@H](NC(=O)CN2CCN(CC(=O)O)CCN(CC(=O)O)CCN(CC(=O)O)CC2)C(=O)NCC2CCC(C(=O)N[C@@H](Cc3ccc4ccccc4c3)C(=O)NCCCC[C@H](NC(=O)N[C@@H](CCC(=O)O)C(=O)O)C(=O)O)CC2)cc1 (stereo partly shown) [^177Lu-Ibu-sPSMA, metal not drawn]
Return: 0.76 ± 0.07 % IA/g

Enquiry: # repeat for CC(C)Cc1ccc(C(C)C(=O)NCCCCC(NC(=O)CN2CCN(CC(=O)O)CCN(CC(=O)O)CCN(CC(=O)O)CC2)C(=O)NCC2CCC(C(=O)NC(Cc3ccc4ccccc4c3)C(=O)NCCCCC(NC(=O)NC(CCC(=O)O)C(=O)O)C(=O)O)CC2)cc1 (stereo not shown) [^177Lu-Ibu-PSMA, metal not drawn]
Return: 0.58 ± 0.09 % IA/g

Others:
Enquiry: Given the entry CC(C)Cc1ccc(C(C)C(=O)NC(CC(=O)NCCCCC(NC(=O)CN2CCN(CC(=O)O)CCN(CC(=O)O)CCN(CC(=O)O)CC2)C(=O)NCC2CCC(C(=O)NC(Cc3ccc4ccccc4c3)C(=O)NCCCCC(NC(=O)NC(CCC(=O)O)C(=O)O)C(=O)O)CC2)C(=O)O)cc1 (stereo not shown) [^177Lu-Ibu-Dβ-PSMA, metal not drawn] , report its measured Blood.
Return: 1.28 ± 0.05 % IA/g

* * *

Tested on: PC-3 PIP/flu tumor-bearing mice
EXPERIMENTAL_PROTOCOL: Biodistribution study in PC-3 PIP/flu tumor-bearing mice
Type: in vivo, athymic nude Balb/c mice
RUN_PARAMETERS: 24 h p.i., PC-3 PIP/flu tumor-bearing mice
TEST_READOUT: Muscle (% IA/g)
All answers are understood in % IA/g, so give the number only.

Known Muscle results, listed for orientation:
Enquiry: For the record CC(C)Cc1ccc(C(C)C(=O)NCC[C@H](NC(=O)CN2CCN(CC(=O)O)CCN(CC(=O)O)CCN(CC(=O)O)CC2)C(=O)NCC2CCC(C(=O)N[C@@H](Cc3ccc4ccccc4c3)C(=O)NCCCC[C@H](NC(=O)N[C@@H](CCC(=O)O)C(=O)O)C(=O)O)CC2)cc1 (stereo partly drawn) [^177Lu-Ibu-sPSMA, metal not drawn] , what value of Muscle is listed for PC-3 PIP/flu tumor-bearing mice?
Return: 0.14

Enquiry: Next compound up: CC(C)Cc1ccc(C(C)C(=O)NCCCCC(NC(=O)CN2CCN(CC(=O)O)CCN(CC(=O)O)CCN(CC(=O)O)CC2)C(=O)NCC2CCC(C(=O)NC(Cc3ccc4ccccc4c3)C(=O)NCCCCC(NC(=O)NC(CCC(=O)O)C(=O)O)C(=O)O)CC2)cc1 (stereo not drawn) [^177Lu-Ibu-PSMA, metal not drawn]
Return: 0.12

Enquiry: Follow-up item: CC(C)Cc1ccc(C(C)C(=O)NC(CCN)C(=O)NCCCCC(NC(=O)CN2CCN(CC(=O)O)CCN(CC(=O)O)CCN(CC(=O)O)CC2)C(=O)NCC2CCC(C(=O)NC(Cc3ccc4ccccc4c3)C(=O)NCCCCC(NC(=O)NC(CCC(=O)O)C(=O)O)C(=O)O)CC2)cc1 (stereo not drawn) [^177Lu-Ibu-DAB-PSMA, metal not drawn]
Return: 0.05

Enquiry: Query CC(C)Cc1ccc(C(C)C(=O)NC(CC(=O)O)C(=O)NCCCCC(NC(=O)CN2CCN(CC(=O)O)CCN(CC(=O)O)CCN(CC(=O)O)CC2)C(=O)NCC2CCC(C(=O)NC(Cc3ccc4ccccc4c3)C(=O)NCCCCC(NC(=O)NC(CCC(=O)O)C(=O)O)C(=O)O)CC2)cc1 (stereo not drawn) [^177Lu-Ibu-Dα-PSMA, metal not drawn] next
Return: 0.07

Enquiry: Further, for CC(C)Cc1ccc(C(C)C(=O)NC(CC(N)=O)C(=O)NCCCCC(NC(=O)CN2CCN(CC(=O)O)CCN(CC(=O)O)CCN(CC(=O)O)CC2)C(=O)NCC2CCC(C(=O)NC(Cc3ccc4ccccc4c3)C(=O)NCCCCC(NC(=O)NC(CCC(=O)O)C(=O)O)C(=O)O)CC2)cc1 (stereo not drawn) [^177Lu-Ibu-N-PSMA, metal not drawn] ?
Return: 0.06

Could you now consider this next compound?
Enquiry: Find the measured Muscle: item CC(C)Cc1ccc(C(C)C(=O)NC(CC(=O)NCCCCC(NC(=O)CN2CCN(CC(=O)O)CCN(CC(=O)O)CCN(CC(=O)O)CC2)C(=O)NCC2CCC(C(=O)NC(Cc3ccc4ccccc4c3)C(=O)NCCCCC(NC(=O)NC(CCC(=O)O)C(=O)O)C(=O)O)CC2)C(=O)O)cc1 (stereo not drawn) [^177Lu-Ibu-Dβ-PSMA, metal not drawn] , target or system PC-3 PIP/flu tumor-bearing mice.
Return: 0.22
